# Test system: methylphenidate-induced gnawing
# experimentalProtocol: Methylphenidate antagonism
# Format: in vivo, mice
# particulars: Mus musculus, sc, read-out: MePh Antg. ED50 (sc)
Counter-ions that a name gives are not always drawn.
Consider the reported ED50 of an entry and match it to a band in interval 1: < 0.5 µmol/kg; interval 2: ≥ 0.5 µmol/kg and < 4 µmol/kg; interval 3: ≥ 4 µmol/kg

> print(dat)
                                   molecule  assignedcategory
1  Fc1ccc(-n2cc(C3=CCN(CCn4ccnc4)CC3)c3cc(C(F)(F)F)ccc32)cc1 [Lu 24-002]        interval 1

Ask | Where would OCCCN1CC=C(c2cn(-c3ccc(F)cc3)c3ccc(C(F)(F)F)cc23)CC1 [Lu 23-171] land among the classes by reported ED50?
Reply | interval 1

Ask | Where would OCCN1CC=C(c2cn(-c3ccc(F)cc3)c3ccc(Cl)cc23)CC1 [Lu 23-146, hydrochloride] land among the classes by reported ED50?
Reply | interval 2

Ask | Where would Fc1ccc(-n2cc(C3=CCN(CCn4cccc4)CC3)c3cc(C(F)(F)F)ccc32)cc1 [Lu 23-172] land among the classes by reported ED50?
Reply | interval 3

Ask | Where would CN1CC=C(c2cn(-c3ccccn3)c3ccc([N+](=O)[O-])cc23)CC1 [Lu 24-015] land among the classes by reported ED50?
Reply | interval 2

Ask | Where would O=[N+]([O-])c1ccc2c(c1)c(C1=CCNCC1)cn2-c1ccc(F)cc1 [Lu 23-133, maleate] land among the classes by reported ED50?
Reply | interval 3

Ask | Where would CN1CC=C(c2cn(-c3cccs3)c3ccc([N+](=O)[O-])cc23)CC1 [Lu 24-014, maleate] land among the classes by reported ED50?
Reply | interval 3

Ask | Where would CN1CC=C(c2cn(-c3ccc(F)cc3)c3ccccc23)CC1.Cl [Lu 23-083, hydrochloride] land among the classes by reported ED50?
Reply | interval 2

Ask | Where would O=C1NCCN1CCN1CC=C(c2cn(-c3ccc(F)cc3)c3ccccc23)CC1 [Lu 23-075, hydrochloride] land among the classes by reported ED50?
Reply | interval 3

Ask | Where would OCCN1CC=C(c2cn(-c3ccc(F)cc3)c3ccc(C(F)(F)F)cc23)CC1 [Lu 23-156] land among the classes by reported ED50?
Reply | interval 1

Ask | Where would CN1CC=C(c2cn(-c3cccc(F)c3)c3ccc([N+](=O)[O-])cc23)CC1 [Lu 24-004] land among the classes by reported ED50?
Reply | interval 2

Ask | Where would Fc1ccc(-n2cc(C3=CCNCC3)c3cc(C(F)(F)F)ccc32)cc1 [Lu 23-155] land among the classes by reported ED50?
Reply | interval 2

Ask | Where would CN1CC=C(c2cn(-c3ccc(F)cc3)c3ccc(N)cc23)CC1 [Lu 23-149] land among the classes by reported ED50?
Reply | interval 1

Ask | Where would O=C1NCCN1CCN1CC=C(c2cn(-c3ccc(F)cc3)c3ccc(Cl)cc23)CC1 [Lu 23-148] land among the classes by reported ED50?
Reply | interval 3

Ask | Where would CN1CC=C(c2cn(-c3cccnc3)c3ccc([N+](=O)[O-])cc23)CC1 [Lu 24-016] land among the classes by reported ED50?
Reply | interval 3

Ask | Where would CN1CC=C(c2cn(-c3nccs3)c3ccc(F)cc23)CC1 [Lu 24-013] land among the classes by reported ED50?
Reply | interval 3

Ask | Where would OCCN1CC=C(c2cn(-c3ccc(C(F)(F)F)cc3)c3ccccc23)CC1 [Lu 24-012] land among the classes by reported ED50?
Reply | interval 3

Ask | Where would O=C1NCCN1CCN1CC=C(c2cn(-c3ccc(F)cc3)c3ccc(C(F)(F)F)cc23)CC1 [Lu 23-157] land among the classes by reported ED50?
Reply | interval 1
